Cited source: ChEMBL document CHEMBL1153716

Target: Prolyl endopeptidase (Homo sapiens) (UniProt P48147)
Sequence (whole entry): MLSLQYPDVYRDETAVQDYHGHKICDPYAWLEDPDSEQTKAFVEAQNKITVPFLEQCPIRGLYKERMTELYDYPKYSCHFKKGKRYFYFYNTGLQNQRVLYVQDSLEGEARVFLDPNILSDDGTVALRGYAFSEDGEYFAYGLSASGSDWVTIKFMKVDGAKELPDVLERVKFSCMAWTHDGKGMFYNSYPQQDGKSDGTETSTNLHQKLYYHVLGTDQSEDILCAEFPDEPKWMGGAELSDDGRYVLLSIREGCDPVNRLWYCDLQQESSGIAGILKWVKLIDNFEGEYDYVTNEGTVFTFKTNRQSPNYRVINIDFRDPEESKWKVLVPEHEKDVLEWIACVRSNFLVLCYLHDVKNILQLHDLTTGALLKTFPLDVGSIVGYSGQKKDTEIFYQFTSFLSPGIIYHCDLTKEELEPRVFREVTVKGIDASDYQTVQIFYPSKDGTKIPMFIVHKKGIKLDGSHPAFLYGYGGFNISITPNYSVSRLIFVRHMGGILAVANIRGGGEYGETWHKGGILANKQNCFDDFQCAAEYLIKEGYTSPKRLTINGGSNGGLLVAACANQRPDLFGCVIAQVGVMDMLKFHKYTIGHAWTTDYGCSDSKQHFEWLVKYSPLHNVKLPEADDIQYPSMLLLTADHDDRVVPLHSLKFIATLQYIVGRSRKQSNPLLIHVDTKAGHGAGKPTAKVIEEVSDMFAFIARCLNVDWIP
Assay: Inhibition of prolyl oligopeptidase in intact human fibroblasts assessed as blockade of Z-Gly-Pro-AMC substrate hydrolysis at 100 uM by fluorimetric assay
Calls of active or inactive are those of the source. The calls are words filed in the database; no cut-off is given here.
measurement_type: inhibition

COC(=O)[C@@H]1CS[C@H]2C[C@H](NC(=O)OCc3ccccc3)C(=O)N21: 10%
NC(=O)[C@@H]1CS[C@H]2C[C@@H](NC(=O)OCc3ccccc3)C(=O)N21: inactive
N#C[C@H]1CS[C@@H]2C[C@H](NC(=O)OCc3ccccc3)C(=O)N12: inactive
